From: patent US20160250177A1

Experiment: clinical
Conditions: human, in vivo, iv, 380 mg/m2
testReadout: Cmax (µg/mL)

* CC(=O)O[C@@]12CO[C@@H]1C[C@H](O)[C@@]1(C)C(=O)[C@H](O)C3=C(C)[C@@H](OC(=O)[C@H](OC(=O)CN4CCN(C)CC4)[C@@H](NC(=O)OC(C)(C)C)c4ccccc4)C[C@@](O)([C@@H](OC(=O)c4ccccc4)[C@H]21)C3(C)C [TD-1] | 310
* CC(=O)O[C@@]12CO[C@@H]1C[C@H](O)[C@@]1(C)C(=O)[C@H](O)C3=C(C)[C@@H](OC(=O)[C@H](O)[C@@H](NC(=O)OC(C)(C)C)c4ccccc4)C[C@@](O)([C@@H](OC(=O)c4ccccc4)[C@H]21)C3(C)C [Docetaxel, docetaxel] | 2.9
